Source listed as paper PMC2533787.

Items are presented alongside their recorded pKd.
TARGET ENTITY: Full-length recombinant human TSG-6 (human, UniProt P98066 18-277)
Sequence (P98066 18-277): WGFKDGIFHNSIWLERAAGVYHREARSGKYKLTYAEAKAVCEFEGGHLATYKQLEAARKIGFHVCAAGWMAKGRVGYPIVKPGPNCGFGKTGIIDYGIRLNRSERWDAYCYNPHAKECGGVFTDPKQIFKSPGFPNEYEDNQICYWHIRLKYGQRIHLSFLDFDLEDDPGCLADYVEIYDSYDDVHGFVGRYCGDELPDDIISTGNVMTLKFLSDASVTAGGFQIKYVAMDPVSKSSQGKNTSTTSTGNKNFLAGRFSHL
ASSAY PROTOCOL: SPR
Answer as the number alone; pKd is minus log10 of concentration in mol/L.

Examples with their reported pKd follow.
BINDER	READOUT VALUE
BMP-13 (ligand, UniProt Q6KF10 336-455, looked up) TAFASRHGKRHGKKSRLRCSKKPLHVNFKELGWDDWIIAPLEYEAYHCEGVCDFPLRSHLEPTNHAIIQTLMNSMDPGSTPPSCCVPTKLTPISILYIDAGNNVVYKQYEDMVVESCGCR	6.63
BMP-14 (ligand, UniProt P43026 382-501, looked up) APLATRQGKRPSKNLKARCSRKALHVNFKDMGWDDWIIAPLEYEAFHCEGLCEFPLRSHLEPTNHAVIQTLMNSMDPESTPPTCCVPTRLSPISILFIDSANNVVYKQYEDMVVESCGCR	6.74
bone morphogenetic protein-2 (ligand, UniProt P12643 283-396, looked up) QAKHKQRKRLKSSCKRHPLYVDFSDVGWNDWIVAPPGYHAFYCHGECPFPLADHLNSTNHAIVQTLVNSVNSKIPKACCVPTELSAISMLYLDENEKVVLKNYQDMVVEGCGCR	6.66

Proceeding to the next binder to report its pKd.
INPUT: Need pKd of soluble receptor activator of NF-κB ligand (ligand, UniProt O14788 140-317, looked up) IRAEKAMVDGSWLDLAKRSKLEAQPFAHLTINATDIPSGSHKVSLSSWYHDRGWAKISNMTFSNGKLIVNQDGFYYLYANICFRHHETSGDLATEYLQLMVYVTKTSIKIPSSHTLMKGGSTKYWSGNSEFHFYSINVGGFFKLRSGEEISIEVSNPSLLDPDQDATYFGAFKVRDID , thanks.
OUTPUT: 5.71
